Target: T1, human EPOR ectodomain (ECD) fused to a human Fc domain (EPOR-Fc) (human, UniProt P19235)
T1 construct: erythropoietin receptor (EPOR), human, ectodomain; Results and legends name EPOR-Fc as the immobilised protein of the ELISA and BLI experiments; the methods describe His-EPOR instead; also called human EPOR-Fc
T1 sequence (P19235 25-250): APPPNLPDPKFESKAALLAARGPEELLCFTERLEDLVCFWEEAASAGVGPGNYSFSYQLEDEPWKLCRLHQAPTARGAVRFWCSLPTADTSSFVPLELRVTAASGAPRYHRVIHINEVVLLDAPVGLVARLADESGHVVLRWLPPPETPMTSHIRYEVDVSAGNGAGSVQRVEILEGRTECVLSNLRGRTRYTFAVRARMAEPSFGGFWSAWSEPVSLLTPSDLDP
Experiment: BLI; results and legends: EPOR-Fc immobilised, Db-Fc in solution, 600 s association, 600 s dissociation, global 1:1 fit; methods: Abs captured on anti-human Fc sensors, His-EPOR in solution in 3-fold dilutions from 100 nM, 25°C, PBS 0.05% Tween 20
Conditions: both partners purified
Property: pKd
Please treat pKd as minus the base-10 logarithm of the molar concentration.

These solved cases illustrate the format of a correct answer.
{"Binder": "Db-Fc 1 (Fc fusion, VL domain of clone 1 (human framework of the Db library); Gly5 linker between VL and VH; VH domain of clone 1; IMGT numbering, heavy chain; Diabody-Fc fusion (VL-Gly5-VH-Fc); Protein-A purified preparation: mainly the dimeric Db-Fc, with a minor earlier-eluting SEC peak (putative Tb-Fc2); also called Db 1; VL–VH 1; source: Expi293, transient expression, purified (rProtein-A); not shown: Fc, …) VH: EVQLVESGGGLVQPGGSLRLSCAASGFNLYSYYIHWVRQAPGKGLEWVASISPYYSYTYYADSVKGRFTISADTSKNTAYLQMNSLRAEDTAVYYCARHGYGAMDYWGQGTLVTVSS VL: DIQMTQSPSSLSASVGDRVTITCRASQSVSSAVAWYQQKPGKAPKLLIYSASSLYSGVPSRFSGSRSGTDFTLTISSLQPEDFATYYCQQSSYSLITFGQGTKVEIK", "Property": "pKd", "Measured Result": 8.82}
{"Binder": "Db-Fc 1.1 (Fc fusion, VL domain of variant 1.1; Gly5 linker between VL and VH; VH domain of variant 1.1; Diabody-Fc fusion; >99% eluted as the Db-Fc form by SEC; Called Db-Fcmix 1.1 where not fractionated by preparative SEC; also called variant 1.1; Db-Fcmix 1.1; source: Expi293, transient expression, purified (rProtein-A); not shown: Fc, C-terminal, kept) VH: EVQLVESGGGLVQPGGSLRLSCAASGFNLRSYYMHWVRQAPGKGLEWVASISPYYSYTYYADSVKGRFTISADTSKNTAYLQMNSLRAEDTAVYYCARHGYGAMDYWGQGTLVTVSS VL: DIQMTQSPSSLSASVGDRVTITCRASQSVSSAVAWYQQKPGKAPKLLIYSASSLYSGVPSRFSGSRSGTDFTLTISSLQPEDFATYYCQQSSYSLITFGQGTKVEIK", "Property": "pKd", "Measured Result": 8.30}
{"Binder": "Db-Fc 1.2 (Fc fusion, VL domain of variant 1.2; Gly5 linker between VL and VH; VH domain of variant 1.2; Diabody-Fc fusion; nearly homogeneous Db-Fc peak by SEC; In vivo used both as unfractionated mixture and as the Db-Fc fraction from preparative SEC; also called variant 1.2; Db-Fcmix 1.2; source: Expi293, transient expression, purified (rProtein-A); not shown: Fc, C-terminal, kept) VH: EVQLVESGGGLVQPGGSLRLSCAASGFNLRSYYMHWVRQAPGKGLEWVASIAPYHGYTYYADSVKGRFTISADTSKNTAYLQMNSLRAEDTAVYYCARHGYGALDYWGQGTLVTVSS VL: DIQMTQSPSSLSASVGDRVTITCRASQSVSSAVAWYQQKPGKAPKLLIYSASSLYSGVPSRFSGSRSGTDFTLTISSLQPEDFATYYCQQSSNFLITFGQGTKVEIK", "Property": "pKd", "Measured Result": 8.74}

Let's switch to this binder now.
Request: Which pKd value belongs to Db-Fc 2 (Fc fusion, VL domain of clone 2 (human framework of the Db library); Gly5 linker between VL and VH; VH domain of clone 2; Diabody-Fc fusion (VL-Gly5-VH-Fc); Protein-A purified preparation: mainly the dimeric Db-Fc, with a minor earlier-eluting SEC peak; also called Db 2; VL–VH 2; source: Expi293, transient expression, purified (rProtein-A); not shown: Fc, C-terminal, kept) VH: EVQLVESGGGLVQPGGSLRLSCAASGFNLSSYYIHWVRQAPGKGLEWVASISPYYSYTYYADSVKGRFTISADTSKNTAYLQMNSLRAEDTAVYYCARHSYAALDYWGQGTLVTVSS VL: DIQMTQSPSSLSASVGDRVTITCRASQSVSSAVAWYQQKPGKAPKLLIYSASSLYSGVPSRFSGSRSGTDFTLTISSLQPEDFATYYCQQAYWPITFGQGTKVEIK ?
Result: 8.29
